# ASSAY_COMMENT: Oral bioavailability in rat
# Type: ADME, organism-based
# CONDITION_SUMMARY: in vivo
QUANTITY_NAME: bioavailability (%)

[A] O=C(NC[C@@H](O)CN1CCC(Oc2ccc(Cl)c(Cl)c2)CC1)c1c[nH]c(=O)c2ccccc12
[B] O=C(NC[C@@H](O)CN1CCC(Oc2ccc(Cl)c(Cl)c2)CC1)c1c[nH]nc1C(F)(F)F
[C] Cn1cc(C(=O)NC[C@@H](O)CN2CCC(Oc3ccc(Cl)c(Cl)c3)CC2)c(C(F)(F)F)cc1=O
Q: Output the entries ranked by bioavailability from maximum down to minimum. # the answer lists labels in the order requested
Ans: C, B, A
